system: MILI (PIWIL2) piRISC loaded with piRNA #2 (26 nt); assay: pre-steady-state target cleavage rate (min^-1); higher = faster piRNA-guided slicing of the target; settings: guide: piRNA #2 5'p-UUAGGUAACCCAGUAGAUCCAGAGGA; auxiliary factor: 500 nM mouse GTSF1;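 note: 1 nM active piRISC with 0.1 nM target library at 33 °C single turnover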
Whole data set: some 3,000 sequences, median “pre-steady-state target cleavage rate” near 0.0079, cut for the highest 2% near 0.2. This excerpt belongs to a sample that is enriched for the highest values.
parameter: pre-steady-state target cleavage rate

>>> measured_result("CUUAUCCUCUGGAACUACUGGGUUACCAAA")
0.13
>>> measured_result("CUUAACCUCUGGAGUCUACUGGGUUACCUAA")
0.135
>>> measured_result("CUUAUCCUCUGGAUGUACAGGGUUACCUAA")
0.135
>>> measured_result("CUUAACCUCUGGAACUACUGGGUUUCCUAA")
0.311
>>> measured_result("CUUAUCCUCUGGUUCUACUGGGUUACCAAA")
0.453
>>> measured_result("CUUAUCCUCUGGAACUACUGGGUUAGCUAA")
0.0654
>>> measured_result("CUUAACCUCUGGAGCUACUGGGUUACCUAA")
0.226
>>> measured_result("CUUAUCCUCUCGAUCUACUCGGUUACCUAA")
0.0053
>>> measured_result("CUUAUCCUCUGGAACUACUGGGUUACCUAA")
0.188
>>> measured_result("CUUAACCUCUGGAACUACUGGGUAACCUAA")
0.06
>>> measured_result("CUUAAGCUCUGGUUCUACUGGGUUACCAAA")
0.199
>>> measured_result("CUUAAGGUCUGGAUCUACAGGGUUACCAAA")
0.106
>>> measured_result("CUUAACCUCUGGUCUACUGGGUUACCUAA")
0.333
>>> measured_result("CUUAACCUCUGGACCUACUGGGUUACCUAA")
0.0796
>>> measured_result("CUUAAGCUCUGGAGCUACUGGGUUACCUAA")
0.0783
>>> measured_result("CUUAAGGAGUGGAUCUAGUGGGUUACCUAA")
0.0231
>>> measured_result("CUUAUCCUCUGGAUCCUACUGGGUUACCUAA")
0.0665
>>> measured_result("CUUAAGCUCUGGUUCUACUGGGUUACCUAA")
0.131
>>> measured_result("CUUAUCCUCUGGUUCUACUGGGUUACGUAA")
0.634
>>> measured_result("CUUAUCCUCUGGAACUACUGGGUUACCUUA")
0.266
>>> measured_result("CUUAACCUCUGGUUCUACUGGGUUACCAAA")
0.134
>>> measured_result("CUUAAGCUCUGGAUCUAGUGGGUUUCCUAA")
0.0199
>>> measured_result("CUUAUCCUCUGGAACUACUGGGUUACGUAA")
0.197
>>> measured_result("CUUAUCCUCUCGAUCUACUGGGUUACCAAA")
0.13
>>> measured_result("CUUAACCUCUGGUUCUACUGGGUUACGUAA")
0.12
>>> measured_result("CUUAUCCUCUGGAUCUACUGGGUUACCAA")
0.123
>>> measured_result("CUUAACCUCUGGGUCUACUGGGUUACCUAA")
0.169
>>> measured_result("CUUAAGCCCUGGAUCUACUGGGUUACCUAA")
0.202

----------
Quick list: pre-steady-state target cleavage rate per entry.
test system: MILI (PIWIL2) piRISC loaded with piRNA #2 (26 nt); test: pre-steady-state target cleavage rate (min^-1); higher = faster piRNA-guided slicing of the target; settings: guide: piRNA #2 5'p-UUAGGUAACCCAGUAGAUCCAGAGGA; auxiliary factor: 500 nM mouse GTSF1;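 note: 1 nM active piRISC with 0.1 nM target library at 33 °C single turnover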
The full ranking holds about 3,000 sequences; the median of “pre-steady-state target cleavage rate” is about 0.0079, and the highest 2% start at about 0.2. Only a selection was taken, and the highest values are over-represented in it overall.
parameter: pre-steady-state target cleavage rate

>>> measured_result("CUUAACCUCUGGGAUCUACUGGGUUACCUAA")
0.168
>>> measured_result("CUUAAGCCUCUGGAUCUACUGGGUUACCUAA")
0.146
>>> measured_result("CUUAACCUCUGGCUCUACUGGGUUACCUAA")
0.8
>>> measured_result("CUUAACCUCUGCAUCUACUGGGUUACCUAA")
0.185
>>> measured_result("CUUAACCUCUGGAUCUACUGGGUUAGCCUAA")
0.15
>>> measured_result("CUUAAGGACUGGAUCUAUUGGGUUACCUAA")
0.0187
>>> measured_result("CUUAAGCUGCUGGAUCUACUGGGUUACCUAA")
0.0417
>>> measured_result("CUUAAGGUCUGGCAUCUACUGGGUUACCUAA")
0.211
>>> measured_result("CUUAUACCUCUGGAUCUACUGGGUUACCUAA")
0.251
>>> measured_result("CUUAAGGUCUGCAUCUACUGGGUUACCUAA")
0.0733
>>> measured_result("CUUAUACUCUGGAUCUACUGGGUUACCUAA")
0.0651
>>> measured_result("CUUAGCCUCUGGAUCUACUGGGUUACCUAA")
0.218
>>> measured_result("CUUACCCUCUGGAUCUACUGGGUUACCUAA")
0.11

----------
Quick list: pre-steady-state target cleavage rate per entry.
test system: MILI (PIWIL2) piRISC loaded with piRNA #2 (26 nt); assay: pre-steady-state target cleavage rate (min^-1); higher = faster piRNA-guided slicing of the target; conditions: guide: piRNA #2 5'p-UUAGGUAACCCAGUAGAUCCAGAGGA; auxiliary factor: 500 nM mouse GTSF1;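 note: 1 nM active piRISC with 0.1 nM target library at 33 °C single turnover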
Over roughly 3,000 sequences, “pre-steady-state target cleavage rate” has its median near 0.0079; the highest 2% begin near 0.2. The entries come from a sample that favours the highest values as a whole.
parameter: pre-steady-state target cleavage rate

>>> measured_result("CUUAUCCUCUGGAUCUCCUGGGUUACCUAA")
0.459
>>> measured_result("CUUAAGGUCAGGAUCUACUGGGUUACCUUA")
0.0166
>>> measured_result("CUUAUCCUCUGGAUCUACUGGGAUAGCUAA")
0.0182
>>> measured_result("CUUAUCCUCUGGAUCUGCUGGGUUACCUAA")
0.0654
>>> measured_result("CUUAAGGUCAGGUUCUACUGGGUUACCUAA")
0.0166
>>> measured_result("CUUAACCUCUGGAUCUCUGGGUUACCUAA")
0.00889
>>> measured_result("CUUAAGGAAUGGAUCUACUGGGUUACCUAA")
0.0666
>>> measured_result("CUUAACCUCUGGAUCUCCUGGGUUACCUAA")
0.213
>>> measured_result("CUUAAGGUGUGGAUCUACUGGGUUACCUUA")
0.0353
>>> measured_result("CUUAACCACUGGAUCAACUGGGUUACCUAA")
0.0515
>>> measured_result("CUUAACCUCUCGGAUCUACUGGGUUACCUAA")
0.0634
>>> measured_result("CUUAACCACUGCAUCUACUGGGUUACCUAA")
0.0927
>>> measured_result("CUUAAGGACUGGAUCUACUGGGUAUACCUAA")
0.0248

----------
Quick list: pre-steady-state target cleavage rate per entry.
tested on: MILI (PIWIL2) piRISC loaded with piRNA #2 (26 nt); test: pre-steady-state target cleavage rate (min^-1); MIWI and MILI are mouse PIWI proteins and EfPiwi is from a freshwater sponge; tags in brackets are library labels; higher = faster piRNA-guided slicing of the target; conditions: guide: piRNA #2 5'p-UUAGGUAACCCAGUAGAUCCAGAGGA; auxiliary factor: 500 nM mouse GTSF1;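 note: 1 nM active piRISC with 0.1 nM target library at 33 °C single turnover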
In all, about 3,000 sequences were measured (“pre-steady-state target cleavage rate”: median about 0.0079, highest 2% from about 0.2 on). Many of the other results were omitted from the sample, so the highest values are more common in it than they were.
parameter: pre-steady-state target cleavage rate

>>> measured_result("CUUAAGGAGAGGAAUCUACUGGGUUACCUAA")
0.00399
>>> measured_result("CUUAAGGACAGGAUCUACUGGGUUACCUAA")
0.0192
>>> measured_result("CUUAAGGUCUGGAUGUACUGGGAUACCUAA")
0.0141
>>> measured_result("CUUAAGGAGAGGAUCUACUGGGUUACCUAA [g2:g20:cont:t1A]")
0.0156
>>> measured_result("CUUAUCCUCUGGAUCUACUGGGUUACCUGA")
0.838
>>> measured_result("CUUAAGGACUGGAUCUACGGGGUUACCUAA")
0.0466
>>> measured_result("CUUAAGCUCUGGAUCUAGUGGGAUACCUAA")
0.00824
>>> measured_result("CUUAUCCUCUGGAUCUACUGGGUUACCUAC [g2:g26:cont:t1C]")
0.105
>>> measured_result("CUUAACCUCUGGAUCUAGUGGGAUACCUAA")
0.0146
>>> measured_result("CUUAACCUCUCGAUCUACUGGGUUACGUAA")
0.052
>>> measured_result("CUUAUCCUCUGGAUCUACUGGGUUACCUGAA")
0.384
>>> measured_result("CUUAAGGACUGGAUCUACAGGGUUACCAAA")
0.0404
>>> measured_result("CUUAAGGUCUGGAUCUACUGGGUUACCUGAA")
0.0831
>>> measured_result("CUUAACCUCUGGAUCUACUGGGUUUCCUUA")
0.225
>>> measured_result("CUUAAGGACUGGAUCUACUGGGUUACCUAA [g2:g22:cont:t1A]")
0.0428
>>> measured_result("CUUAUCCUGCUGGAUCUACUGGGUUACCUAA")
0.0776
>>> measured_result("CUUAUGCUCUGGAUCUACUGCGUUACCUAA")
0.0127
>>> measured_result("CUUAACCUCUGGAUCUACUGGGUUUCGUAA")
0.128
>>> measured_result("CUUAAGCUCUGGAUCUAGUGGGUUACCUAA")
0.0282
>>> measured_result("CUUAAGCUCUGGUUCUACUGGGUUUCCUAA")
0.219
>>> measured_result("CUUAAGCUCUGGAUCCACUGGGUUACCUAA")
0.0284
>>> measured_result("CUUAAGCUCUGGAUUACUGGGUUACCUAA")
0.0142
>>> measured_result("CUUAAGCUCUGGAUCUACUGGGUUCCCUAA")
0.0477
>>> measured_result("CUUAAGGAGUGGAUCUACAGGGUUUCCUAA")
0.056
